Reference source for all entries: ChEMBL document CHEMBL1201862

Test system: Hs-578T
Test: NCI tumour cell line growth inhibition, 48 h
Activity calls are given as the source filed them. No stated cut-off is given here; in the data, active = GI50 up to about 1.1 µM and inactive = higher.
outcome-measure: GI50

Below: 5 compounds and their reported GI50.
CCOC(=O)C(Cc1cccn1C(=O)OC(C)(C)C)[N+](=O)[O-] (centres undefined)    29.9 µM (inactive)
COc1c(O)c(O)cc2c1-c1ccc(OC)c(=O)cc1C(NC(C)=O)CC2 (centres undefined)    2.66 µM (inactive)
O=C(Nc1ccccc1)c1cc(S(=O)(=O)Nc2n[nH]c(=O)[nH]2)c(SSc2cc(Cl)c(C(=O)Nc3ccccc3)cc2S(=O)(=O)Nc2n[nH]c(=O)[nH]2)cc1Cl    > 100 µM (inactive)
O=C(CCCCCCC(=O)Nc1cccnc1)NO [PYROXAMIDE]    5.15 µM (inactive)
COC(=O)c1c(CC(Cc2ccc3c(c2)CCCC3)C(=O)O)ccc2c1CCCC2 (centres undefined)    25.8 µM (inactive)

Value (GI50, Hs-578T) for record "CN(CCNC(=O)c1cn(C)c2c1ccc1cc(Cl)ccc12)CCNC(=O)c1cn(C)c2c1ccc1cc(Cl)ccc12" = 1.94 µM (inactive)

Value (GI50, Hs-578T) for record "Cc1c(C(=O)OCc2ccccc2)[n+]([O-])c2ccccc2[n+]1[O-]" = 30.1 µM (inactive)

Value (GI50, Hs-578T) for record "CCN(CC)/N=C\c1c2ccccc2cc2ccccc12" = 48 µM (inactive)

Value (GI50, Hs-578T) for record "CNS(=O)(=O)c1ccc2c(c1)/C(=C1/Nc3ccccc3C1=O)C(=O)N2" = 3.41 µM (inactive)
